Data provenance is patent US20070004689A1.

protocolDetails: Rat pharmacokinetics, cassette dosing, oral
Format: in vivo
protocolConditions: rat, oral 5 mg/kg, plasma
endpointName: AUC (µM·h)
Answers are plain numbers, in µM·h.

1) COc1cc2c(cc1C(N)=O)CC[C@@H]1[C@@H]2CC[C@]2(C)C(=O)CC[C@@H]12; 0.185

Proceeding to the next compound to report its AUC.
Item C=C1CC[C@H]2[C@@H]3CCc4cc(C(N)=O)c(OC)cc4[C@H]3CC[C@]12C has what recorded AUC? 1.4

###

System: PC3 a human prostate carcinoma
protocolDetails: Proliferation assay, PC3
Format: cell-based
protocolConditions: Homo sapiens; proliferation; read-out: PC3 (IC50 μM)
endpointName: IC50 (µM)
Numbers only, in µM.

1. COc1cc2c(cc1O)CC[C@@H]1[C@@H]2CC[C@]2(C)[C@@H](O)CC[C@@H]12 [Compound 1, 2-Methoxyestradiol, reference compound]; 1.08

Record IC50 per entry; entries follow.
1. C=C1CC[C@H]2[C@@H]3CCc4cc(C(N)=O)c(OC)cc4[C@H]3CC[C@]12C
2. COc1cc2c(cc1C(N)=O)CC[C@@H]1[C@@H]2CC[C@]2(C)C(=O)CC[C@@H]12

[0.25, 4.64]
